Tested on: HS 578T breast
Test: NCI-60 one-dose screen, 48 h
Settings: 10 µM unless noted
About 83,000 compounds went through this panel and 20% of them were active in at least one assay; those are over-represented in the sample as a whole. Activity calls are given as the source filed them. Rule for the calls: active = growth percent below 10; inactive = the rest.
Outcome codes: active, inactive

compound: N#CCC1=NC(c2cccs2)=Nc2ccccc2S1
class-name: inactive
//
compound: O=C1/C(=C/c2ccccc2)CN(C(=O)c2cccnc2)C/C1=C\c1ccccc1
class-name: inactive
//
compound: COc1ccc(NC(=O)c2sc3nc(C)c(C(O)c4ccccc4)cc3c2N)cc1 (stereo unspecified)
class-name: inactive
//
compound: COc1cc2c(/C=C3\C(=O)Nc4ccccc43)c(C(=O)O)[nH]c2cc1C
class-name: inactive
//
compound: COC(=O)/C=C1/SC(=Nc2cccc(Cl)c2)N(CCc2c[nH]c3ccc(O)cc23)C1=O
class-name: inactive
//
compound: Clc1ccc(-c2nc(-c3c[nH]c4ncccc34)cs2)cc1
class-name: inactive
//
compound: COc1cc(C2C3=C(COC3=O)N(CCO)c3cc4c(cc32)OCCO4)cc(OC)c1OC (stereo unspecified)
class-name: active
//
compound: COc1cc2cc(Oc3ccc(NC(=O)Nc4ccccc4)cc3)c(C)nc2cc1OCCN1CCCCC1
class-name: inactive
//
compound: COc1cc(C2Cc3ncccc3-c3[nH]c(=O)c4cccnc4c32)cc(OC)c1OC (stereo unspecified)
class-name: inactive
//
compound: CCNc1nc(-c2ccc(F)cc2)c(C#N)c(=O)n1C
class-name: inactive
//
compound: CC(C)(CO)N(CCO)CCO
class-name: inactive
